Test system: EKVX NSCLC
assay-name: NCI tumour cell line growth inhibition, 48 h
reported-metric: TGI

Look over these answered cases.
compound	TGI
NC(=O)c1csc(-c2ccc(CO)o2)n1	> 100 µM
Fc1ccc(Nc2nc3nonc3nc2Nc2ccc(I)cc2)cc1	10.1 µM
C=C1CC[C@@H]2[C@](C)(COC(=O)CCC(=O)O)CCC[C@@]2(C)[C@@H]1CCC1=CC(=O)OC1	> 100 µM
CC1CCc2c(sc3ncnc(N/N=C/c4ccc(Cl)cc4)c23)C1 (stereo unspecified)	81.6 µM
COC(=O)c1c2c(c(C)[n+]([O-])c1C)C(=O)C(NCc1ccc(O)cc1)=CC2=O	3.34 µM

We next turn to a different compound, shown below.
Query (compound): CN(Cc1cnc2nc(N)nc(N)c2n1)c1ccc(C(=O)NCCCC(=O)O)cc1 ; field requested: TGI
> 100 µM
